- ASSAY NAME: Cmax in CD-1 mouse liver at 50 mg/kg, ip after 24 hrs by UPLC-MS/MS analysis
- Format: ADME, organism-based
- Parameters: dose 50 mg/kg, route intraperitoneal
MEASURE NAME: Cmax (µM)

line_notation=CN1CCN([C@@H](c2ccccc2)c2ccc(Cl)cc2)CC1 unit_string=µM measurement=436

----------
- ASSAY NAME: Metabolic stability in mouse liver microsomes assessed as half life by LC-MS/MS analysis in presence of NADPH
t1/2 vs 40 min: less than gives t; not less than gives f.

compound=CCN1CCN(C(c2ccc(Cl)cc2)c2ccc(Cl)cc2)CC1 group=t
compound="NCCOCCN1CCN(C(c2ccccc2)c2ccc(Cl)cc2)CC1 (racemic)" group=t
compound="NCCOCCOCCOCCOCCN1CCN(C(c2ccccc2)c2ccc(Cl)cc2)CC1 (racemic)" group=t
compound=OCCOCCN1CCN(C(c2ccc(Cl)cc2)c2ccc(Cl)cc2)CC1 group=t
compound="CN1CCN(C(c2ccccc2)c2ccc(Cl)cc2)CC1 (racemic)" group=t
compound=CN1CCN(C(c2ccc(Cl)cc2)c2ccc(Cl)cc2)CC1 group=f
